study.target: UniProt:Q9UQ49
assay.notes: Inhibition of GM3 cleavage, NEU3
condition.parameters: read-out: IC50 NEU3, inhibition of GM3 cleavage; GM3 500 μM, pH 4.5
readout.label: IC50 (µM)
Report the figure in µM without appending any unit label.

Given CC(=O)N[C@H]1[C@H]([C@H](O)[C@H](O)CO)OC(C(=O)O)=C[C@@H]1O [DANA, reference compound] , state its recorded IC50.
54

====

Readings of IC50 for the listed molecules
study.target: NEU3 (Homo sapiens, UniProt Q9UQ49)
assay.notes: IC50 inhibition assay using 4MU-NANA as the substrate, NEU3
Format: biochemical
Design: MBP (N); made in house; host or cells: E. coli
condition.parameters: 4MU-NANA as the substrate; read-out: IC50 NEU3

>  <molecule>
CC(=O)Nc1ccc(-c2cn(C[C@@H](O)[C@@H](O)[C@@H]3OC(C(=O)O)=C[C@H](O)[C@H]3NC(C)=O)nn2)cc1

>  <observed.result>
5.5 µM

$$$$
>  <molecule>
CCCCCC(=O)NC[C@@H](O)[C@@H](O)[C@@H]1OC(C(=O)O)=C[C@H](O)[C@H]1NC(=O)CCCCC

>  <observed.result>
> 500 µM

$$$$
>  <molecule>
CC(=O)N[C@H]1[C@H]([C@H](O)[C@H](O)Cn2cc(-c3ccc(C(F)(F)F)cc3)nn2)OC(C(=O)O)=C[C@@H]1O

>  <observed.result>
3.3 µM

$$$$
>  <molecule>
CC(=O)N[C@H]1[C@H]([C@H](O)[C@H](O)Cn2cc(-c3ccc(C(=O)O)cc3)nn2)OC(C(=O)O)=C[C@@H]1N=[N+]=[N-]

>  <observed.result>
20 µM

$$$$
>  <molecule>
CC(=O)N[C@H]1[C@H]([C@H](O)[C@H](O)Cn2cc(-c3ccc(C)cc3)nn2)OC(C(=O)O)=C[C@@H]1O

>  <observed.result>
8.2 µM

$$$$
>  <molecule>
CC(=O)N[C@@H]1C(O)C=C(C(=O)O)OC1C(O)C(O)CNC(=O)C(C)C (stereo partly shown)

>  <observed.result>
96 µM

$$$$

Given CC(=O)N[C@@H]1C(O)C=C(C(=O)O)OC1C(O)C(O)Cn1cc(-c2ccc(-c3ccccc3)cc2)nn1 (stereo partly shown) , state its recorded IC50.
0.7 µM

====

Test system: NEU1, NEU2, NEU3, NEU4
assay.notes: Isoenzyme specificity/selectivity from 4MU-NANA IC50 across the four human neuraminidases
Assay type: biochemical
condition.parameters: isoenzyme(s) the compound is specific for; dual (bispecific) when ratio of IC50 is about 3 or less
readout.label: Target

>  <compound>
CC(=O)Nc1ccc(-c2cn(CC(=O)N[C@@H]3C(O)C=C(C(=O)O)OC3C(O)C(O)CO)nn2)cc1 (stereo partly shown)

>  <Target>
NEU2

$$$$
>  <compound>
CC(=O)N[C@@H]1C(O)C=C(C(=O)O)OC1C(O)C(O)CNC(=O)c1ccccc1 (stereo partly shown)

>  <Target>
NEU1

$$$$
>  <compound>
CC(=O)N[C@H]1[C@H]([C@H](O)[C@H](O)CNC(=O)c2cccc(N)c2)OC(C(=O)O)=C[C@@H]1O

>  <Target>
NEU1

$$$$
>  <compound>
CCCCCC(=O)N[C@H]1[C@H]([C@H](O)[C@H](O)CNC(=O)CCC)OC(C(=O)O)=C[C@@H]1O

>  <Target>
NEU1

$$$$

Consider now this further compound.
Given O=C(Cn1cc(-c2ccc(C(=O)O)cc2)nn1)N[C@@H]1C(O)C=C(C(=O)O)OC1C(O)C(O)CO (stereo partly shown) , state its recorded Target.
NEU2

====

Readings of IC50 for the listed compounds
study.target: NEU3 (Homo sapiens)
assay.notes: IC50 inhibition assay using 4MU-NANA as the substrate, NEU3
Type: biochemical
Design: MBP (N); made in house; host or cells: E. coli
condition.parameters: 4MU-NANA as the substrate; read-out: IC50 NEU3
Report the figure in µM without appending any unit label.

Given CC(=O)N[C@H]1[C@H]([C@H](O)[C@H](O)Cn2cc(-c3ccc(Oc4ccccc4)cc3)nn2)OC(C(=O)O)=C[C@@H]1O , state its recorded IC50.
1

Again, but for CN(C)c1ccc(-c2cn(CC(=O)N[C@@H]3C(O)C=C(C(=O)O)OC3C(O)C(O)CO)nn2)cc1 (some centres unmarked)
46

====

System: NEU1, NEU2, NEU3, NEU4
assay.notes: Isoenzyme specificity/selectivity from 4MU-NANA IC50 across the four human neuraminidases
Assay type: biochemical
condition.parameters: isoenzyme(s) the compound is specific for; dual (bispecific) when ratio of IC50 is about 3 or less
readout.label: Target

Answered examples (5):
>  <compound>
CC(=O)N[C@@H]1C(O)C=C(C(=O)O)OC1C(O)C(O)CNC(=O)CCC(C)C (stereo partly drawn) [compound 55]

>  <readout.label>
Target

>  <observed.result>
NEU1

$$$$
>  <compound>
CC(=O)N[C@H]1[C@H]([C@H](O)[C@H](O)Cn2cc(-c3ccc(C(=O)O)cc3)nn2)OC(C(=O)O)=C[C@@H]1N=[N+]=[N-] [compound 13]

>  <readout.label>
Target

>  <observed.result>
NEU3

$$$$
>  <compound>
CCCCCC(=O)NC[C@@H](O)[C@@H](O)[C@@H]1OC(C(=O)O)=C[C@H](O)[C@H]1NC(=O)CC [compound 66]

>  <readout.label>
Target

>  <observed.result>
NEU1

$$$$
>  <compound>
COc1ccc(-c2cn(C[C@@H](O)[C@@H](O)[C@@H]3OC(C(=O)O)=C[C@H](O)[C@H]3NC(C)=O)nn2)cc1 [7e]

>  <readout.label>
Target

>  <observed.result>
NEU3/ NEU4

$$$$
>  <compound>
CC(C)CCC(=O)N[C@H]1[C@H]([C@H](O)[C@H](O)CO)OC(C(=O)O)=C[C@@H]1O [compound 36]

>  <readout.label>
Target

>  <observed.result>
NEU1

$$$$

Consider now this further compound.
Given CC(=O)Nc1ccc(-c2cn(C[C@@H](O)[C@@H](O)[C@@H]3OC(C(=O)O)=C[C@H](O)[C@H]3NC(C)=O)nn2)cc1 [7b] , state its recorded Target.
NEU3/ NEU4

====

study.target: NEU1 (Homo sapiens, UniProt Q99519)
Construct: made in house; host or cells: HEK293 (lentiviral transduction), crude lysate
assay.notes: IC50 inhibition assay using 4MU-NANA as the substrate, NEU1
Type: biochemical
condition.parameters: 4MU-NANA as the substrate; read-out: IC50 NEU1
readout.label: IC50 (nM)
Report the figure in nM without appending any unit label.

Answered examples (2):
>  <compound>
CC(=O)N[C@H]1[C@H]([C@H](O)[C@H](O)Cn2cc(-c3ccc(N)cc3)nn2)OC(C(=O)O)=C[C@@H]1O [7c]

>  <study.target>
NEU1 (Homo sapiens, UniProt Q99519)

>  <IC50, nM>
76000

$$$$
>  <compound>
CCCCC(=O)N[C@H]1[C@H]([C@H](O)[C@H](O)CNC(C)=O)OC(C(=O)O)=C[C@@H]1O [compound 67]

>  <study.target>
NEU1 (Homo sapiens, UniProt Q99519)

>  <IC50, nM>
350

$$$$

Consider now this further compound.
Given CCCCC(C)C(=O)N[C@H]1[C@H]([C@H](O)[C@H](O)CNC(C)=O)OC(C(=O)O)=C[C@@H]1O (mixture of isomers) [compound 74] , state its recorded IC50.
420

====

study.target: NEU3 (Homo sapiens)
assay.notes: IC50 inhibition assay using 4MU-NANA as the substrate, NEU3
Assay type: biochemical
Design: MBP (N); made in house; host or cells: E. coli
condition.parameters: 4MU-NANA as the substrate; read-out: IC50 NEU3
readout.label: pIC50
To interpret pIC50, take it as minus log10 of a concentration measured in moles per litre.

>  <compound>
CC(=O)N[C@@H]1C(O)C=C(C(=O)O)OC1C(O)C(O)CNC(=O)CC(C)C (stereo partly shown)

>  <study.target>
NEU3 (Homo sapiens)

>  <pIC50>
4.14

$$$$

Observed pIC50 on NEU3 (Homo sapiens) for O=C(O)C1=C[C@H](O)[C@@H](NC(=O)C2CC2)[C@H]([C@H](O)[C@H](O)CO)O1 , please.
3.77

====

Readings of IC50 for the listed compounds
study.target: NEU1 (Homo sapiens, UniProt Q99519)
Construct: made in house; host or cells: HEK293 (lentiviral transduction), crude lysate
assay.notes: IC50 inhibition assay using 4MU-NANA as the substrate, NEU1
Type: biochemical
condition.parameters: 4MU-NANA as the substrate; read-out: IC50 NEU1
Report the figure in nM without appending any unit label.

>  <compound>
CCCCCC(=O)N[C@H]1[C@H]([C@H](O)[C@H](O)CO)OC(C(=O)O)=C[C@@H]1O

>  <IC50, nM>
420

$$$$

Consider now this further compound.
Given CCCCC(C)C(=O)N[C@H]1[C@H]([C@H](O)[C@H](O)CO)OC(C(=O)O)=C[C@@H]1O (mixture of isomers) , state its recorded IC50.
550
